Assay: Measurement of molar absorption coefficients ε365, ε313 and ε365/ε313 in acetonitrile
Assay type: physicochemical
Conditions: molar absorption coefficient at 365 nm in acetonitrile
Listed here: items and their measured ε365 of Compound β.

- compound: "c1ccc2cnccc2c1"
  ε365 of Compound β: "<10 (cm mol/L)^−1"
- compound: "c1ccncc1"
  ε365 of Compound β: "<10 (cm mol/L)^−1"
- compound: "Clc1ccccn1"
  ε365 of Compound β: "<10 (cm mol/L)^−1"
- compound: "CCCCc1nccc2ccccc12"
  ε365 of Compound β: "<10 (cm mol/L)^−1"
- compound: "Cc1cc(C)c2c(C)cc(C)nc2c1"
  ε365 of Compound β: "<10 (cm mol/L)^−1"
- compound: "CCCCc1ncc(C)c2ccccc12"
  ε365 of Compound β: "<10 (cm mol/L)^−1"
- compound: "Cc1c2ccccc2nc2ccccc12"
  ε365 of Compound β: "6300 (cm mol/L)^−1"
- compound: "Nc1ccncc1"
  ε365 of Compound β: "<100 (cm mol/L)^−1"
- compound: "c1ccc2nc3ccccc3cc2c1"
  ε365 of Compound β: "4900 (cm mol/L)^−1"
- compound: "Cc1cc(C)c2ccccc2n1"
  ε365 of Compound β: "<10 (cm mol/L)^−1"
- compound: "c1ccc2ncccc2c1"
  ε365 of Compound β: "<10 (cm mol/L)^−1"
- compound: "COc1cc(C)nc2ccccc12"
  ε365 of Compound β: "<10 (cm mol/L)^−1"
- compound: "Cc1nccc2ccccc12"
  ε365 of Compound β: "<10 (cm mol/L)^−1"
- compound: "c1ccc(-c2c3ccccc3nc3ccccc23)cc1"
  ε365 of Compound β: ">10000 (cm mol/L)^−1"

// data source = patent US20230059487A1
